Tested on: Rattus norvegicus
assayInfo: Hypothermic activity in Sprague-Dawley rat assessed as time duration of maximal body temperature decrease at 5 mg/kg, ip
Format: functional
particulars: route intraperitoneal
Starred links: 1 amine or outer side, 2 acyl side, 3 side chain; linkers in the order of their positions; H or OH if unused. Non-standard residues stand in square brackets, D forms with d. Residues, ends and D or L forms follow the SMILES beside them. *: point of attachment. NMeβ3hLys = CN([C@@H](CCCCN)CC(=O)[*:2])[*:1]; Pentanoyl(5-guanidino) = NC(N)=NCCCCC(=O)*; X1 = [N-]=[N+]=N[C@@H](CCCNC(=N)N)C(=O)*; X2 = [N-]=[N+]=N[C@@H](CCCCN)CC(=O)*; NMeR = CN[C@@H](CCCNC(=N)N)C(=O)O; αMeR = C[C@](N)(CCCNC(=N)N)C(=O)O; Tle = CC(C)(C)[C@H](N)C(=O)O; X3 = C[C@](N)(CCCCN)CC(=O)*; β3hK = NCCCC[C@H](N)CC(=O)O; Ahp = NCCCCCCC(=O)O
true means recorded Time is 200 min or above; false means it is below 200 min.

molecule | category
CC(C)C[C@H](NC(=O)[C@@H](NC(=O)[C@H](Cc1ccc(O)cc1)NC(=O)[C@@H]1CCCN1C(=O)[C@H](CCCNC(=N)N)NC(=O)C[C@@](C)(N)CCCCN)C(C)(C)C)C(=O)O (X3-RPY[Tle]L-OH) | false
CC[C@@H](C)[C@H](NC(=O)[C@H](Cc1ccc(O)cc1)NC(=O)[C@@H]1CCCN1C(=O)[C@H](CCCNC(=N)N)NC(=O)[C@H](CCCNC(=N)N)N=[N+]=[N-])C(=O)N[C@@H](CC(C)C)C(=O)O | true
CC(C)C[C@H](NC(=O)[C@@H](NC(=O)[C@H](Cc1c[nH]c2ccccc12)NC(=O)[C@@H]1CCCN1C(=O)[C@H](CCCCN)NC(=O)[C@@](C)(N)CCCNC(=N)N)C(C)(C)C)C(=O)O (H-[αMeR]KPW[Tle]L-OH) | false
CC(=O)N[C@@H](CCCNC(=N)N)C(=O)N[C@@H](CCCCN)C(=O)N1CCC[C@H]1C(=O)N[C@@H](Cc1c[nH]c2ccccc12)C(=O)N[C@H](C(=O)N[C@@H](CC(C)C)C(=O)O)C(C)(C)C (Ac-RKPW[Tle]L-OH) | true
CC[C@H](C)[C@H](NC(=O)[C@H](Cc1ccc(O)cc1)NC(=O)[C@@H]1CCCN1C(=O)[C@H](CCCN=C(N)N)NC(=O)[C@H](CCCN=C(N)N)NC(C)=O)C(=O)N[C@@H](CC(C)C)C(=O)O | false
CC(C)C[C@H](NC(=O)[C@@H](NC(=O)[C@H](Cc1ccc(O)cc1)NC(=O)[C@@H]1CCCN1C(=O)[C@H](CCCNC(=N)N)NC(=O)C[C@H](CCCCN)N=[N+]=[N-])C(C)(C)C)C(=O)O (X2-RPY[Tle]L-OH) | false
CC(C)C[C@H](NC(=O)[C@@H](NC(=O)[C@H](Cc1c[nH]c2ccccc12)NC(=O)[C@@H]1CCCN1C(=O)[C@H](CCCCN)NC(=O)[C@@H](N)CCCNC(=N)N)C(C)(C)C)C(=O)O (H-RKPW[Tle]L-OH) | false
CC[C@H](C)[C@H](NC(=O)[C@H](Cc1ccc(O)cc1)NC(=O)[C@@H]1CCCN1C(=O)[C@H](CCCN=C(N)N)NC(=O)[C@@H](N)CCCN=C(N)N)C(=O)N[C@@H](CC(C)C)C(=O)O | true
CN[C@@H](CCCNC(=N)N)C(=O)N[C@@H](CCCCN)C(=O)N1CCC[C@H]1C(=O)N[C@@H](Cc1c[nH]c2ccccc12)C(=O)N[C@H](C(=O)N[C@@H](CC(C)C)C(=O)O)C(C)(C)C (H-[NMeR]KPW[Tle]L-OH) | true
CC(=O)N[C@@H](CCCCN)CC(=O)N[C@@H](CCCNC(=N)N)C(=O)N1CCC[C@H]1C(=O)N[C@@H](Cc1ccc(O)cc1)C(=O)N[C@H](C(=O)N[C@@H](CC(C)C)C(=O)O)C(C)(C)C (Ac-[β3hK]RPY[Tle]L-OH) | false
CC[C@@H](C)[C@H](NC(=O)[C@H](Cc1ccc(O)cc1)NC(=O)[C@@H]1CCCN1C(=O)[C@H](CCCNC(=N)N)NC(=O)CCCCNC(=N)N)C(=O)N[C@@H](CC(C)C)C(=O)O | false
CN[C@@H](CCCCN)CC(=O)N[C@@H](CCCNC(=N)N)C(=O)N1CCC[C@H]1C(=O)N[C@@H](Cc1ccc(O)cc1)C(=O)N[C@H](C(=O)N[C@@H](CC(C)C)C(=O)O)C(C)(C)C (NMeβ3hLys-RPY[Tle]L-OH) | false
CC(C)C[C@H](NC(=O)[C@@H](NC(=O)[C@H](Cc1c[nH]c2ccccc12)NC(=O)[C@@H]1CCCN1C(=O)[C@H](CCCCN)NC(=O)[C@H](CCCNC(=N)N)N=[N+]=[N-])C(C)(C)C)C(=O)O (X1-KPW[Tle]L-OH) | true
CC[C@@H](C)[C@H](NC(=O)[C@H](Cc1ccc(O)cc1)NC(=O)[C@@H]1CCCN1C(=O)[C@H](CCCNC(=N)N)NC(=O)[C@H](CCCNC(=N)N)NC)C(=O)N[C@@H](CC(C)C)C(=O)O | false
CC(C)C[C@H](NC(=O)[C@@H](NC(=O)[C@H](Cc1ccc(O)cc1)NC(=O)[C@@H]1CCCN1C(=O)[C@H](CCCNC(=N)N)NC(=O)CCCCCCN)C(C)(C)C)C(=O)O (H-[Ahp]RPY[Tle]L-OH) | false
CC[C@@H](C)[C@H](NC(=O)[C@H](Cc1ccc(O)cc1)NC(=O)[C@@H]1CCCN1C(=O)[C@H](CCCNC(=N)N)NC(=O)[C@@](C)(N)CCCNC(=N)N)C(=O)N[C@@H](CC(C)C)C(=O)O | false
CC(C)C[C@H](NC(=O)[C@@H](NC(=O)[C@H](Cc1ccc(O)cc1)NC(=O)[C@@H]1CCCN1C(=O)[C@H](CCCNC(=N)N)NC(=O)C[C@@H](N)CCCCN)C(C)(C)C)C(=O)O (H-[β3hK]RPY[Tle]L-OH) | false
O=C(CCCN1CCC(O)(c2ccc(Cl)cc2)CC1)c1ccc(F)cc1 | false
CC(C)C[C@H](NC(=O)[C@@H](NC(=O)[C@H](Cc1c[nH]c2ccccc12)NC(=O)[C@@H]1CCCN1C(=O)[C@H](CCCCN)NC(=O)CCCCNC(=N)N)C(C)(C)C)C(=O)O ({Pentanoyl(5-guanidino)}-KPW[Tle]L-OH) | true
